Taken from ChEMBL document CHEMBL4052588.

target: Transcription initiation factor TFIID subunit 1, TAF1 (Homo sapiens); assay: Inhibition of human His tagged TAF1 incubated for 30 mins followed by addition of biotinylated peptide and further incubation for 30 mins measured by AlphaScreen assay
pIC50: −log10 of the molar value.
endpoint: pIC50

Prompt line: What value of pIC50 has been recorded for this entry: CCc1cc2cc(NS(=O)(=O)c3ccc(C#N)cc3)ccc2n(CC)c1=O
Response line: < 4.70

* * *

assay: Apparent permeability from basolateral to apical side in human Caco2 cells at 10 uM after 2 hrs by LC-MS/MS analysis; type: ADME, cell-based; conditions: Caco-2
endpoint: Papp B→A at 2 h, 10 µM (×10⁻⁶ cm/s)
Answers are plain numbers, in ×10⁻⁶ cm/s.

Prompt line: What value of Papp B→A at 2 h, 10 µM has been recorded for this entry: Cc1cc2cc(NS(=O)(=O)c3ccc(C#N)cc3)ccc2n(C)c1=O
Response line: 50
